Cited source: patent US9499553B2

SYSTEM NAME: human NaPi-IIb (Homo sapiens)
Construct: expressed in transfected cells
Sequence (O95436 whole entry): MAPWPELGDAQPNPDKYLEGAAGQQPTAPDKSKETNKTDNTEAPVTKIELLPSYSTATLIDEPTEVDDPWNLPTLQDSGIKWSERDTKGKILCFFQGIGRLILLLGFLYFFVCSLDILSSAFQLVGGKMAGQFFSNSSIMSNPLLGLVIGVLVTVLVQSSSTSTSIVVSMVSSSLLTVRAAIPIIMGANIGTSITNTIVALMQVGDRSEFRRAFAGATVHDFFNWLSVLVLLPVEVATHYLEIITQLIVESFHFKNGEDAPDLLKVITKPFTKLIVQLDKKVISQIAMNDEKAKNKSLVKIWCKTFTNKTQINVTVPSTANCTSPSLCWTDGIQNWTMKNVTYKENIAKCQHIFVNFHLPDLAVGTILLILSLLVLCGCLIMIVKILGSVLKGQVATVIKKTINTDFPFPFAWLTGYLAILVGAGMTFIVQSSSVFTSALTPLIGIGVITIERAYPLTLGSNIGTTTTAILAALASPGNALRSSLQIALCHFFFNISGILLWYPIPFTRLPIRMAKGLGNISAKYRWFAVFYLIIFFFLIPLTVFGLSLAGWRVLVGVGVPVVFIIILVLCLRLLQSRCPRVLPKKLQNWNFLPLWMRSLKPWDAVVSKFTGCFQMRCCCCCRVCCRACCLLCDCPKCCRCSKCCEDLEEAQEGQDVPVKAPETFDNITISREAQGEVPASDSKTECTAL
METHOD DESCRIPTION: Inhibitory effect on 33PO4 uptake into human NaPi-IIb-expressing CHO cells
Assay type: cell-based
RECORDED CONDITIONS: read-out: IC50
Method: Test Example 2: Inhibitory Effect on PO4 Uptake into Human NaPi-IIb-Expressing Cell CHO cells were transfected with human NaPi-IIb expression plasmids, and a stably human NaPi-IIb-expressing cell line was obtained using G418. The human NaPi-IIb-expressing cells were inoculated to a 96-well plate and incubated overnight in a CO2 incubator. […] After washing with ice-cold buffer A, a liquid scintillator was added to each reaction mixture, and the amount of ^33PO4 uptake was measured using TopCount.
pIC50: −log10 of the molar value. Counter-ions that a name gives are not always drawn.
PROPERTY NAME: pIC50

COMPOUND	pIC50
CN1[C@@H](C(C)(C)C)C(O)=C(C(=O)Nc2cc(F)c(Br)c(F)c2)C(=O)N1Cc1cccc(F)c1F	5.04
CN1[C@@H](C(C)(C)C)C(O)=C(C(=O)Nc2cnc(C(F)(F)F)nc2-c2ccc(C(F)(F)F)nc2)C(=O)N1Cc1ccc(OCCN2CCOCC2)c(F)c1F	4.88
C[C@]12CCCN1N(Cc1ccc(CN3CCOCC3)c(F)c1F)C(=O)C(C(=O)Nc1ccc(C(F)(F)F)cc1-c1ccc(C(F)(F)F)nc1)=C2O [Example 164, hydrochloride]	5.30
Cc1cc(S(=O)(=O)N(C)C)ccc1-c1cc(C(F)(F)F)ccc1NC(=O)C1=C(O)[C@@]2(C)CCCN2N(Cc2cccc(F)c2F)C1=O	5.08
C[C@]12CCCN1N(Cc1cc(F)c(F)cc1F)C(=O)C(C(=O)Nc1cc(F)c(Br)c(F)c1)=C2O	4.71
C[C@]12CCCN1N(Cc1cccc(F)c1F)C(=O)C(C(=O)Nc1ccc(C(F)(F)F)cc1-c1cc(Cl)cnc1Cl)=C2O	5.10
CN(C)S(=O)(=O)c1ccc(-c2cc(C(F)(F)F)ccc2NC(=O)C2=C(O)[C@@]3(C)CCCN3N(Cc3cccc(F)c3F)C2=O)s1	5.11
COc1cncc(-c2cc(C(F)(F)F)ccc2NC(=O)C2=C(O)[C@@]3(C)CCCN3N(Cc3cccc(F)c3F)C2=O)c1	4.76

a: Cc1c(C#N)ncnc1-c1cc(C(F)(F)F)ccc1NC(=O)C1=C(O)C2(CCC2)N(C)N(Cc2ccc(OCCN3CCOCC3)c(F)c2F)C1=O
b: C[C@]12CCCN1N(Cc1ccc(OC[C@H]3CCCO3)c(F)c1F)C(=O)C(C(=O)Nc1ccc(C(F)(F)F)cc1-c1ccc(C(F)(F)F)nc1)=C2O
c: C[C@]12CCCN1N(Cc1cccc(OC(F)F)c1)C(=O)C(C(=O)Nc1ccc(C(F)(F)F)cc1-c1ccc(C(F)(F)F)nc1)=C2O
d: C[C@]12CCCN1N(Cc1ccccc1Cl)C(=O)C(C(=O)Nc1ccc(C(F)(F)F)cc1-c1ccc(C(F)(F)F)nc1)=C2O
Please put the entries in order of rising pIC50. Answer format: the labels, ordered as requested.
a, b, c, d

1: C[C@]12CCCN1N(Cc1ccc(OCCN3CCOCC3)c(F)c1F)C(=O)C(C(=O)Nc1ccc(C(F)(F)F)cc1-c1ccnc(C#N)c1)=C2O
2: CN1N(Cc2cccc(F)c2F)C(=O)C(C(=O)Nc2ccc(C(F)(F)F)nc2-c2cncc(C(F)(F)F)c2)=C(O)C1(C)C
3: Cc1cccc(CN2C(=O)C(C(=O)Nc3cc(F)c(Br)c(F)c3)=C(O)[C@@]3(C)CCCN23)c1F
Rank by pIC50 (largest to smallest). Would you mind listing the labels in the order requested?
3, 2, 1
(3: 5.34, 2: 5.08, 1: 4.77)

P: CN1N(Cc2ccc(OCCN3CCOCC3)c(F)c2F)C(=O)C(C(=O)Nc2ccc(C(F)(F)F)cc2-c2cc(C(F)(F)F)ncn2)=C(O)C12CCCCC2
Q: Cc1c(C#N)ncnc1-c1cc(C(F)(F)F)ccc1NC(=O)C1=C(O)[C@@]2(C)CCCN2N(Cc2ccc(OCCN3CCOCC3)c(F)c2F)C1=O
R: C[C@]12CCCN1N(Cc1cccc(F)c1F)C(=O)C(C(=O)Nc1ccc(C(F)(F)F)cc1-c1cnc(C#N)c([N+](=O)[O-])c1)=C2O
Sort low-to-high on pIC50, please. # list labels per requested ordering
P, Q, R
(P: 4.77, Q: 5.10, R: 5.37)

a: CN1N(Cc2ccc(OCCN3CCOCC3)c(F)c2F)C(=O)C(C(=O)Nc2ccc(Cl)cc2-c2cc(C(F)(F)F)ncn2)=C(O)C12CCCC2
b: Cc1nc(NC(=O)C2=C(O)C3(CCC3)N(C)N(Cc3cccc(F)c3F)C2=O)ccc1Br
Returns: the argument ( a or b ) having the larger pIC50. Select an item and report its label.
b
(b: 5.00, a: 4.80)
